Hey, just so you know, these numbers are from PubChem BioAssay (NCI).

Tested on: PC-3 prostate
Experiment: NCI tumour cell line growth inhibition, 48 h
Parameter: TGI (µM)
One number for each entry, in µM.

[[record]]
cpd_smiles = "O=C1Nc2ccccc2/C1=C\\c1c(Cl)nc2n1CCS2"
tested_target = "PC-3 prostate"
parameter = "TGI"
observed = 80.4


Next compound, please.
[Q] Reported TGI for CN(C)c1ccc(C(=C2C=CC(=[N+](C)C)C=C2)c2ccccc2Cl)cc1 : what is it?
[A] 0.995

----------
Test system: SW-620 colon
Experiment: NCI tumour cell line growth inhibition, 48 h
Parameter: GI50

# example entries with known answers
[[record]]
molecule = "CCCCN1CCN(c2ccc3nc(-c4ccc5nc(-c6ccc(OCC)c(OCC)c6)[nH]c5c4)[nH]c3c2)CC1"
parameter = "GI50"
observed = "474 nM"

[[record]]
molecule = "Cn1c2ccccc2c2nnc(NNCc3ccccn3)nc21"
parameter = "GI50"
observed = "613 nM"

[[record]]
molecule = "COc1cc(NC(C)CCCN)c2ncccc2c1Sc1ccc(Cl)cc1 (stereo not given)"
parameter = "GI50"
observed = "1610 nM"


Report GI50 for each item below.
1. Cc1ncc(-c2ccnc(Nc3ccc(S(C)(=O)=O)cc3)n2)n1C(C)C
2. CC/C=C\C[C@H](O)C/C=C1/C(=O)C=C[C@@H]1C/C=C\CCCC(=O)NC
3. Cc1cc2c(cc1C)[n+](Cc1ccc3ccccc3n1)cn2Cc1ccc2ccccc2n1
4. CC(=O)c1ccc2c(c1)N(CCCN(C)C)c1ccccc1S2
5. CC(=O)/C(=C\c1c(-c2ccccc2)[nH]c2ccccc12)S(=O)(=O)c1ccccc1
6. CCN(CC)c1ccc(/C=C/C=C(/C#N)C(N)=S)cc1
7. O=S(=O)(NCCO)c1cc[c]([Sb](=[O])([OH])[OH])cc1

[A]
1. 1020 nM
2. 1280 nM
3. 1070 nM
4. 16500 nM
5. 730 nM
6. 15400 nM
7. > 100000 nM

----------
Test system: HOP-92 NSCLC
Test: NCI tumour cell line growth inhibition, 48 h
Would you mind telling me the reported TGI of each entry?

[[record]]
molecule = "Cc1cc(S(N)(=O)=O)c(S/C(=N\\Nc2ccc([N+](=O)[O-])cc2)c2ccc3ccccc3c2)cc1Cl"
observed = "19.6 µM"


Look up TGI for the entries below, preserving their order.
1. CC1CC(C(=O)OC2OC(COC3OC(CO)C(OC4OC(C)C(O)C(O)C4O)C(O)C3O)C(O)C(O)C2O)C2CCC3(C)C(=CCC4(C)C3CCC3C(C)(CO)C(O)C(O)CC34C)C2C1C (stereo not drawn)
2. N#CCCN(CCC#N)c1ccc(C(N=Nc2ccc(Cl)cc2)=Nc2ccc(Cl)cc2)cc1
3. COc1ccc(/C=C2\CN(C)CC3C2=NN(c2ccccc2)C3c2ccc(OC)cc2)cc1 (stereo not drawn)
4. COc1ccc(/C(=N/O)c2cc(OC)c(OC)c(OC)c2)c(OC)c1N
5. CCCCCCCCCCCCCCCCOc1ccc(/C=C/C2=[N+](CCCl)CCO2)cc1
6. CC(=O)c1ccccc1NS(=O)(=O)c1ccc2nc(C)n(NS(=O)(=O)c3ccccc3C(C)=O)c(=O)c2c1

[A]
1. 34.6 µM
2. 38.8 µM
3. > 100 µM
4. > 100 µM
5. > 100 µM
6. > 100 µM

[Q] I am curious: what TGI value has been reported for Clc1cccc2c1OCC1C(c3ccccc3)=NN(c3ccccc3)C21 (stereo not drawn) ?
[A] > 100 µM
